experiment: Cytotoxicity against human LCC-6 cells expressing P-glycoprotein after 72 hrs; assay type: functional, cell-based; conditions: LCC-6, 72 h
Each entry below carries its recorded IC50.
Numeric only. Scale: nM

Completed entries (count: 5):
compound-smiles	endpoint-value
COc1cccc(C(=O)O[C@H]2[C@@H]3[C@]4(OC(C)=O)CO[C@@H]4C[C@H](O)[C@@]3(C)C(=O)[C@H](OC(C)=O)C3=C(C)[C@@H](OC(=O)[C@H](O)[C@@H](NC(=O)OC(C)(C)C)C(F)(F)F)C[C@]2(O)C3(C)C)c1	3.99
COC(=O)O[C@H]1C(=O)[C@@]2(C)[C@H]([C@H](OC(=O)c3cccc(Cl)c3)[C@]3(O)C[C@H](OC(=O)[C@H](O)[C@@H](NC(=O)OC(C)(C)C)C(F)(F)F)C(C)=C1C3(C)C)[C@]1(OC(C)=O)CO[C@@H]1C[C@@H]2O	5.08
CC(=O)O[C@@]12CO[C@@H]1C[C@H](O)[C@@]1(C)C(=O)[C@H](OC(=O)N(C)C)C3=C(C)[C@@H](OC(=O)[C@H](O)[C@@H](NC(=O)OC(C)(C)C)C(F)F)C[C@@](O)([C@@H](OC(=O)c4cccc(N=[N+]=[N-])c4)[C@H]21)C3(C)C	1.69
COc1cccc(C(=O)O[C@H]2[C@@H]3[C@]4(OC(C)=O)CO[C@@H]4C[C@H](O)[C@@]3(C)C(=O)[C@H](OC(C)=O)C3=C(C)[C@@H](OC(=O)[C@H](O)[C@@H](NC(=O)OC(C)(C)C)C(F)F)C[C@]2(O)C3(C)C)c1	5.57
CCC(=O)O[C@H]1C(=O)[C@@]2(C)[C@H]([C@H](OC(=O)c3cccc(OC)c3)[C@]3(O)C[C@H](OC(=O)[C@H](O)[C@@H](NC(=O)OC(C)(C)C)C(F)(F)F)C(C)=C1C3(C)C)[C@]1(OC(C)=O)CO[C@@H]1C[C@@H]2O	4.24

Q: Give recorded IC50. "CC(=O)O[C@H]1C(=O)[C@@]2(C)[C@H]([C@H](OC(=O)c3ccccc3)[C@]3(O)C[C@H](OC(=O)[C@H](O)[C@@H](NC(=O)c4ccccc4)c4ccccc4)C(C)=C1C3(C)C)[C@]1(OC(C)=O)CO[C@@H]1C[C@@H]2O"
Ans: 110

Q: Tell me its IC50 given "COc1cccc(C(=O)O[C@H]2[C@@H]3[C@]4(OC(C)=O)CO[C@@H]4C[C@H](O)[C@@]3(C)C(=O)[C@H](OC(=O)N(C)C)C3=C(C)[C@@H](OC(=O)[C@H](O)[C@@H](NC(=O)OC(C)(C)C)C(F)(F)F)C[C@]2(O)C3(C)C)c1" as the entry.
Ans: 4.48

====

tested on: NCI-H460; test: Cytotoxicity against human H460 cells after 72 hrs; type: functional, cell-based; conditions: NCI-H460, 72 h
Criterion: IC50 strictly under 0.4 nM. Met: rule met. Not met: rule not met.

compound-smiles	label-class
COc1cccc(C(=O)O[C@H]2[C@@H]3[C@]4(OC(C)=O)CO[C@@H]4C[C@H](O)[C@@]3(C)C(=O)[C@H](OC(C)=O)C3=C(C)[C@@H](OC(=O)[C@H](O)[C@@H](NC(=O)OC(C)(C)C)C(F)(F)F)C[C@]2(O)C3(C)C)c1	rule met

Q: Find out if reported IC50 for "CC(=O)O[C@@]12CO[C@@H]1C[C@H](O)[C@@]1(C)C(=O)[C@H](OC(=O)N(C)C)C3=C(C)[C@@H](OC(=O)[C@H](O)[C@@H](NC(=O)OC(C)(C)C)C(F)(F)F)C[C@@](O)([C@@H](OC(=O)c4cccc(F)c4)[C@H]21)C3(C)C" is less than 0.4 nM
Ans: rule not met

Q: Does this compound meet the criterion IC50 < 0.4 nM? "CC(=O)O[C@@]12CO[C@@H]1C[C@H](O)[C@@]1(C)C(=O)[C@H](OC(=O)N(C)C)C3=C(C)[C@@H](OC(=O)[C@H](O)[C@@H](NC(=O)OC(C)(C)C)C(F)F)C[C@@](O)([C@@H](OC(=O)c4cccc(N=[N+]=[N-])c4)[C@H]21)C3(C)C"
Ans: rule not met

Q: # check: IC50 < 0.4 nM for "CC(=O)O[C@@]12CO[C@@H]1C[C@H](O)[C@@]1(C)C(=O)[C@H](OC(=O)N(C)C)C3=C(C)[C@@H](OC(=O)[C@H](O)[C@@H](NC(=O)OC(C)(C)C)C(F)F)C[C@@](O)([C@@H](OC(=O)c4cccc(Cl)c4)[C@H]21)C3(C)C"
Ans: rule met

Q: A record lists "COC(=O)O[C@H]1C(=O)[C@@]2(C)[C@H]([C@H](OC(=O)c3cccc(OC)c3)[C@]3(O)C[C@H](OC(=O)[C@H](O)[C@@H](NC(=O)OC(C)(C)C)C(F)(F)F)C(C)=C1C3(C)C)[C@]1(OC(C)=O)CO[C@@H]1C[C@@H]2O" . Is its IC50 below 0.4 nM?
Ans: rule met

Q: Strictly below 0.4 nM in IC50? "COC(=O)O[C@H]1C(=O)[C@@]2(C)[C@H]([C@H](OC(=O)c3cccc(OC)c3)[C@]3(O)C[C@H](OC(=O)[C@H](O)[C@@H](NC(=O)OC(C)(C)C)C(F)F)C(C)=C1C3(C)C)[C@]1(OC(C)=O)CO[C@@H]1C[C@@H]2O"
Ans: rule met

Q: Please let me know if "CC(=O)O[C@H]1C(=O)[C@@]2(C)[C@H]([C@H](OC(=O)c3cccc(Cl)c3)[C@]3(O)C[C@H](OC(=O)[C@H](O)[C@@H](NC(=O)OC(C)(C)C)C(F)F)C(C)=C1C3(C)C)[C@]1(OC(C)=O)CO[C@@H]1C[C@@H]2O" shows IC50 below 0.4 nM.
Ans: rule not met

====

experiment: Cytotoxicity against human LCC-6 cells expressing P-glycoprotein after 72 hrs; format: functional, cell-based; details: LCC-6, 72 h
pIC50: −log10 of the molar value.
Mark false for pIC50 values under 6, and true for everything at or above.

compound-smiles	label-class
CC(=O)O[C@@]12CO[C@@H]1C[C@H](O)[C@@]1(C)C(=O)[C@H](OC(=O)N(C)C)C3=C(C)[C@@H](OC(=O)[C@H](O)[C@@H](NC(=O)OC(C)(C)C)C(F)F)C[C@@](O)([C@@H](OC(=O)c4cccc(F)c4)[C@H]21)C3(C)C	true
COc1cccc(C(=O)O[C@H]2[C@@H]3[C@]4(OC(C)=O)CO[C@@H]4C[C@H](O)[C@@]3(C)C(=O)[C@H](OC(=O)N(C)C)C3=C(C)[C@@H](OC(=O)[C@H](O)[C@@H](NC(=O)OC(C)(C)C)C(F)F)C[C@]2(O)C3(C)C)c1	true
CC(=O)O[C@H]1C(=O)[C@@]2(C)[C@H]([C@H](OC(=O)c3ccccc3)[C@]3(O)[C@H]4OC/C=C/Cc5ccccc5C(=O)N[C@@H](C=C(C)C)[C@@H](O)C(=O)O[C@@H]4C(C)=C1C3(C)C)[C@]1(OC(C)=O)CO[C@@H]1C[C@@H]2O	true
CC(=O)O[C@H]1C(=O)[C@@]2(C)[C@H]([C@H](OC(=O)c3ccccc3)[C@]3(O)[C@H]4OC/C=C/OCc5ccccc5C(=O)N[C@@H](c5ccccc5)[C@@H](O)C(=O)O[C@@H]4C(C)=C1C3(C)C)[C@]1(OC(C)=O)CO[C@@H]1C[C@@H]2O	false
CC(=O)O[C@H]1C(=O)[C@@]2(C)[C@H]([C@H](OC(=O)c3ccccc3)[C@]3(O)[C@H]4OC/C=C\OCc5ccccc5C(=O)N[C@@H](c5ccccc5)[C@@H](O)C(=O)O[C@@H]4C(C)=C1C3(C)C)[C@]1(OC(C)=O)CO[C@@H]1C[C@@H]2O	false

Q: Is reported pIC50 greater than or equal to 6 here: "CC(=O)O[C@H]1C(=O)[C@@]2(C)[C@H]([C@H](OC(=O)c3ccccc3)[C@]3(O)[C@H]4OC/C=C/Cc5ccccc5C(=O)N[C@@H](c5ccccc5)[C@@H](O)C(=O)O[C@@H]4C(C)=C1C3(C)C)[C@]1(OC(C)=O)CO[C@@H]1C[C@@H]2O"
Ans: true

Q: # check: pIC50 of "CC(=O)O[C@@]12CO[C@@H]1C[C@H](O)[C@@]1(C)C(=O)[C@H](OC(=O)N(C)C)C3=C(C)[C@@H](OC(=O)[C@H](O)[C@@H](NC(=O)OC(C)(C)C)C(F)(F)F)C[C@@](O)([C@@H](OC(=O)c4cccc(F)c4)[C@H]21)C3(C)C" is greater than or equal to 6
Ans: true

====

tested on: NCI-H460; test: Cytotoxicity against human H460 cells after 72 hrs; assay type: functional, cell-based; conditions: NCI-H460, 72 h
Label key: 1 means IC50 under 0.3 nM; 0 means IC50 of 0.3 nM or more.

compound-smiles	label-class
CCC(=O)O[C@H]1C(=O)[C@@]2(C)[C@H]([C@H](OC(=O)c3cccc(F)c3)[C@]3(O)C[C@H](OC(=O)[C@H](O)[C@@H](NC(=O)OC(C)(C)C)C(F)F)C(C)=C1C3(C)C)[C@]1(OC(C)=O)CO[C@@H]1C[C@@H]2O	0
CCC(=O)O[C@H]1C(=O)[C@@]2(C)[C@H]([C@H](OC(=O)c3cccc(OC)c3)[C@]3(O)C[C@H](OC(=O)[C@H](O)[C@@H](NC(=O)OC(C)(C)C)C(F)F)C(C)=C1C3(C)C)[C@]1(OC(C)=O)CO[C@@H]1C[C@@H]2O	0
COC(=O)O[C@H]1C(=O)[C@@]2(C)[C@H]([C@H](OC(=O)c3cccc(N=[N+]=[N-])c3)[C@]3(O)C[C@H](OC(=O)[C@H](O)[C@@H](NC(=O)OC(C)(C)C)C(F)F)C(C)=C1C3(C)C)[C@]1(OC(C)=O)CO[C@@H]1C[C@@H]2O	1

Q: IC50 under 0.3 nM? Item: "CC(=O)O[C@H]1C(=O)[C@@]2(C)[C@H]([C@H](OC(=O)c3cccc(N=[N+]=[N-])c3)[C@]3(O)C[C@H](OC(=O)[C@H](O)[C@@H](NC(=O)OC(C)(C)C)C(F)(F)F)C(C)=C1C3(C)C)[C@]1(OC(C)=O)CO[C@@H]1C[C@@H]2O"
Ans: 1
